The measurements presented in this section are drawn from paper PMC11969024.

B1: peptide HD2 (from tick evasin EVA4) / CCL18 (biotinylated, synthetic) (parent)
chain 1: EEDDYTAYAPLTCYFT
chain 2: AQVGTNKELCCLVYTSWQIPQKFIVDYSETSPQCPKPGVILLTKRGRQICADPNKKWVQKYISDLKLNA

Variants of: B1
Settings: with CCL18 (biotinylated, synthetic); scale: log2
reported_metric: enrichment

| mut | value_reported |
| --- | --- |
| chain 1 C13S | -9.93 |
| chain 1 D3C | -10.1 |
| chain 1 P10E | -8.1 |
| chain 1 A7C | -10 |
| chain 1 A9D | -8.43 |
| chain 1 P10R | -9.28 |
| chain 1 P10H | -8.15 |
| chain 1 C13A | -10.8 |
| chain 1 Y8E | -6.38 |
| chain 1 Y5K | -5.8 |
| chain 1 D4C | -9.44 |
| chain 1 Y8K | -6.27 |
| chain 1 T16C | -7.88 |
| chain 1 T6C | -11.3 |
| chain 1 P10K | -7.16 |
| chain 1 C13H | -8.85 |
| chain 1 E1C | -9.95 |
| chain 1 C13E | -10.1 |
| chain 1 P10I | -8.64 |
| chain 1 Y8R | -8.38 |
| chain 1 C13G | -10.6 |
| chain 1 C13D | -9.35 |
| chain 1 P10M | -8.7 |
| chain 1 P10T | -8.06 |
| chain 1 P10C | -9.92 |
| chain 1 P10S | -9.39 |
| chain 1 C13K | -9.32 |
| chain 1 Y14P | -9.05 |
